Tested on: LOLRI
Experiment: Post-emergence herbicidal action against LOLRI
Assay type: in vivo, Lolium rigidum
Conditions: Lolium rigidum, 504 h, dosage 80 g/ha
Description: Seeds of monocotyledonous and dicotyledonous weed and crop plants are laid out in sandy loam soil in wood-fiber pots, covered with soil and cultivated in a greenhouse under good growth conditions. 2 to 3 weeks after sowing, the test plants are treated at the one-leaf stage. […]
MEASURED_QUANTITY: pest or weed control at 80 g/ha (%)
Numbers only, in %.

Completed entries (count: 3):
> print(dat)
                            smiles.notation                measured.quantity  assay.value
1  CCn1nnnc1NC(=O)c1ccc(C(F)(F)F)c(C(=O)NC)c1Cl  pest or weed control at 80 g/ha          100
2  CCNC(=O)c1c(C(F)(F)F)ccc(C(=O)Nc2nnnn2CC)c1SC  pest or weed control at 80 g/ha           90
3  CCNC(=O)c1c(C(F)F)ccc(C(=O)Nc2nnnn2CC)c1Cl  pest or weed control at 80 g/ha           80

Incoming: // pest or weed control at 80 g/ha lookup, key: CNC(=O)c1c(C(F)F)ccc(C(=O)Nc2nnnn2C)c1Cl
Outgoing: 90
